This document collects IC50 values reported for Acetylcholinesterase (Electrophorus electricus, UniProt O42275).

compound: N#Cc1c(N)c(C#N)c(-c2ccc(Cl)cc2)c2c1CC(c1ccc(Cl)cc1)S2 (racemic)
IC50 / µM: 34.1
//
compound: Cc1ccc(C2Cc3c(C#N)c(N)c(C#N)c(-c4ccc(F)cc4)c3S2)cc1 (racemic)
IC50 / µM: 18.1
//
compound: COc1ccc(-c2c(C#N)c(N)c(C#N)c3c2SC(c2ccc(Cl)cc2)C3)cc1 (racemic)
IC50 / µM: 26.6
//
compound: N#Cc1c(N)c(C#N)c(-c2ccc(F)cc2)c2c1CC(c1ccccc1)S2 (racemic)
IC50 / µM: 32.3
//
compound: N#Cc1c(N)c(C#N)c(-c2ccc(Br)cc2)c2c1CC(c1ccc(Cl)cc1)S2 (racemic)
IC50 / µM: 41.3
